List of binding signal values.
- Test System: GST-Nv-NF-kB (Cys allele) (Nematostella vectensis, UniProt E5G601 2-411)
- Sequence: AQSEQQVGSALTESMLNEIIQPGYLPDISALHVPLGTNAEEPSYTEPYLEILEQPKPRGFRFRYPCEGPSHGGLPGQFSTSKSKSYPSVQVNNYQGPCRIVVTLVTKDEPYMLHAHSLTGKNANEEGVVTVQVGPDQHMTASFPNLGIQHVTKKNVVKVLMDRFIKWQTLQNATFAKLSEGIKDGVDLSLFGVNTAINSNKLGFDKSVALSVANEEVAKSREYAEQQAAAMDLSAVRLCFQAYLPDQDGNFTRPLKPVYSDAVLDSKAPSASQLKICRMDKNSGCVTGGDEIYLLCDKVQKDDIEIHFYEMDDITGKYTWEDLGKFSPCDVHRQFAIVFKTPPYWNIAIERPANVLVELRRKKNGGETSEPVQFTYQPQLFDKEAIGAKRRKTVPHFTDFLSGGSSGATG
- Assay Summary: protein-binding microarray (PBM); PBM: ~300 nM protein, 6 mM HEPES pH 7.8, 80 mM KCl, 0.5 mM EDTA, 0.5 mM EGTA, 6% glycerol, 35 ng/ul poly-dIdC, 1% milk, 1 h, room temperature; high values mean tight binding
- Assay Conditions: dsDNA, one strand shown

| Sequence Chain | Uom | binding signal |
| --- | --- | --- |
| CCGATTAACATCATTCCCGGGAATGATGTTAATCGGGTCTTGATTCGCTTGACGCTGCTG | z-score | 4.09 |
| CCGATTAACATCAAAACGTCCCCTGATGTTAATCGGGTCTTGATTCGCTTGACGCTGCTG | z-score | 6.41 |
| CCGATTAACATCAGGGGAAAACATGATGTTAATCGGGTCTTGATTCGCTTGACGCTGCTG | z-score | 7.81 |
| CCGATTAACATCACAATTTTCCCTGATGTTAATCGGGTCTTGATTCGCTTGACGCTGCTG | z-score | 6.45 |
| CCGATTAACATCAGGGGGTAAAATGATGTTAATCGGGTCTTGATTCGCTTGACGCTGCTG | z-score | 4.2 |
| CCGATTAACATCAAGGGGGATTATGATGTTAATCGGGTCTTGATTCGCTTGACGCTGCTG | z-score | 7.48 |
| CCGATTAACATCAAATTATCCCCTGATGTTAATCGGGTCTTGATTCGCTTGACGCTGCTG | z-score | 6.6 |
| CCGATTAACATCAAGGAAAACCCTGATGTTAATCGGGTCTTGATTCGCTTGACGCTGCTG | z-score | 2.33 |
| CCGATTAACATCAGGGAGAACCCTGATGTTAATCGGGTCTTGATTCGCTTGACGCTGCTG | z-score | 3.85 |
| CCGATTAACATCAGGAGAGTCCCTGATGTTAATCGGGTCTTGATTCGCTTGACGCTGCTG | z-score | 5.29 |

---

- Test System: GST-Ap-NF-kB RHD (Exaiptasia pallida (Aiptasia), UniProt A0A913YAJ5 2-422)
- Sequence: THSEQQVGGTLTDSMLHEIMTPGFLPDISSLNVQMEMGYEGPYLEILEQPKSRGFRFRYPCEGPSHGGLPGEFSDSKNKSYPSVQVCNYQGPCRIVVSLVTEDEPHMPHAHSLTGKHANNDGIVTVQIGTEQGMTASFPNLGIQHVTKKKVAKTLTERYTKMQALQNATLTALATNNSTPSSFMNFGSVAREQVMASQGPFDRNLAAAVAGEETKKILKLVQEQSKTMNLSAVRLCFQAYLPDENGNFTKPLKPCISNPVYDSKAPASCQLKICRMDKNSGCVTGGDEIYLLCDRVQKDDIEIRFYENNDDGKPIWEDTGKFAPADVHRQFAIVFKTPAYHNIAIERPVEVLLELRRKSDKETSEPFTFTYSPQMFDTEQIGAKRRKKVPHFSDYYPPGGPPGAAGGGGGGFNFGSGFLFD
- Assay Summary: protein-binding microarray (PBM); PBM: ~300 nM protein, 6 mM HEPES pH 7.8, 80 mM KCl, 0.5 mM EDTA, 0.5 mM EGTA, 6% glycerol, 35 ng/ul poly-dIdC, 1% milk, 1 h, room temperature; Ap Aiptasia and Nv Nematostella (sea anemones) / Co Capsaspora / Aq Amphimedon (sponge) / Dm Drosophila / Hu human; RHD is the Rel homology domain; high values mean tight binding
- Assay Conditions: dsDNA, one strand shown
Readout Type: binding signal (z-score)

| Sequence Chain | Test System | Readout Type | Uom | Observed Value |
| --- | --- | --- | --- | --- |
| CCGATTAACATCAGGGGACTATATGATGTTAATCGGGTCTTGATTCGCTTGACGCTGCTG | GST-Ap-NF-kB RHD (Exaiptasia pallida (Aiptasia), UniProt A0A913YAJ5 2-422) | binding signal | z-score | 5.4 |
| CCGATTAACATCAATTCTCCCCCTGATGTTAATCGGGTCTTGATTCGCTTGACGCTGCTG | GST-Ap-NF-kB RHD (Exaiptasia pallida (Aiptasia), UniProt A0A913YAJ5 2-422) | binding signal | z-score | 6.48 |
| CCGATTAACATCAATAATTTCCCTGATGTTAATCGGGTCTTGATTCGCTTGACGCTGCTG | GST-Ap-NF-kB RHD (Exaiptasia pallida (Aiptasia), UniProt A0A913YAJ5 2-422) | binding signal | z-score | 4.38 |
